The entries below come with measured IC50 values attached.
target: 26S proteasome non-ATPase regulatory subunit 14 (Homo sapiens); assay: Inhibition of 26S proteasome regulatory subunit RPN11 deubiquitinating activity in beta5 inhibitor MG132 pretreated human HeLa cells expressing UbG76V-GFP assessed as reduction in UbG76V-GFP degradation rate by fluorescence microscopic method; format: cell-based

The examples below pair each entry with its known result.
O=C(NCCc1cccs1)c1cnc2c(SSc3cccc4cc(C(=O)NCCc5cccs5)cnc34)cccc2c1 | 5 µM
O=C(NCc1ccco1)c1cnc2c(SSc3cccc4cc(C(=O)NCc5ccco5)cnc34)cccc2c1 | 1 µM
O=C(CNC(=O)c1cnc2c(SSc3cccc4cc(C(=O)NCC(=O)NCC(=O)OCc5ccccc5)cnc34)cccc2c1)NCC(=O)OCc1ccccc1 | > 10 µM
NC(=O)c1cnc2c(SSc3cccc4cc(C(N)=O)cnc34)cccc2c1 | 1.2 µM

What value of IC50 has been reported for the following compound? "O=C(Nc1ncco1)c1cnc2c(SSc3cccc4cc(C(=O)Nc5ncco5)cnc34)cccc2c1" > 10 µM

Same lookup for "O=C(NCc1ccc(F)cc1)c1cnc2c(SSc3cccc4cc(C(=O)NCc5ccc(F)cc5)cnc34)cccc2c1" , please. > 10 µM

Same lookup for "O=C(NCc1ccncc1)c1cnc2c(SSc3cccc4cc(C(=O)NCc5ccncc5)cnc34)cccc2c1" , please. > 10 µM

What do you get for "COc1ccc(CNC(=O)c2cnc3c(SSc4cccc5cc(C(=O)NCc6ccc(OC)cc6)cnc45)cccc3c2)cc1" ? > 10 µM

Query "COC(=O)CNC(=O)c1cnc2c(SSc3cccc4cc(C(=O)NCC(=O)OC)cnc34)cccc2c1" next > 0.3 µM

---

Entries and their measured pIC50 follow.
molecular target: Histone deacetylase 1 (Homo sapiens, UniProt Q13547); assay: Inhibition of full length recombinant human C-terminal His/FLAG-tagged HDAC1 expressed in baculovirus expression system using substrate 3 preincubated for 5 mins followed by substrate addition measured after 30 mins by fluorescence assay
Sequence (Q13547 whole entry): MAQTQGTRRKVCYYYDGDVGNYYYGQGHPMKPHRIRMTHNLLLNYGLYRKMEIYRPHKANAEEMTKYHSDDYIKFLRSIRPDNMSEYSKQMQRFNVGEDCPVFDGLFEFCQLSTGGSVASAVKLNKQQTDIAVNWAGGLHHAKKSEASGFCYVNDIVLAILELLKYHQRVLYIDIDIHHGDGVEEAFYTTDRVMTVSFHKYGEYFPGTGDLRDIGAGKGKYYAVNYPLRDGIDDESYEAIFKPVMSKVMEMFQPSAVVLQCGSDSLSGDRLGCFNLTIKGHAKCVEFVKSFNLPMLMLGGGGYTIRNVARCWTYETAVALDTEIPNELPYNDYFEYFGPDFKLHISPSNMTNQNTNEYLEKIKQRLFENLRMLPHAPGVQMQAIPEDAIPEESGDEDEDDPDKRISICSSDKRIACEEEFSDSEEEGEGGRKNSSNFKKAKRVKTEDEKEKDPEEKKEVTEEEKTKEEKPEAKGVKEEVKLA
pIC50: −log10 of the molar value.

Sample records with pIC50:
Cc1cc(S)c2ncccc2c1 | < 4.30
Cc1cnc2c(S)cccc2c1 | < 4.30
Cc1ccc(S)c2ncccc12 | < 3.70
Cc1ccnc2c(S)cccc12 | < 3.70

Turning now to a further record.
For "Sc1cccc2cccnc12" , what is its reported pIC50? < 3.70

---

target: COP9 signalosome complex subunit 5 (Homo sapiens); test: Inhibition of CSN5 (unknown origin) using SCFskp2-Nedd8OG as substrate after 1 hr by fluorescence polarization assay
Sequence (Q92905 whole entry, one chain of several): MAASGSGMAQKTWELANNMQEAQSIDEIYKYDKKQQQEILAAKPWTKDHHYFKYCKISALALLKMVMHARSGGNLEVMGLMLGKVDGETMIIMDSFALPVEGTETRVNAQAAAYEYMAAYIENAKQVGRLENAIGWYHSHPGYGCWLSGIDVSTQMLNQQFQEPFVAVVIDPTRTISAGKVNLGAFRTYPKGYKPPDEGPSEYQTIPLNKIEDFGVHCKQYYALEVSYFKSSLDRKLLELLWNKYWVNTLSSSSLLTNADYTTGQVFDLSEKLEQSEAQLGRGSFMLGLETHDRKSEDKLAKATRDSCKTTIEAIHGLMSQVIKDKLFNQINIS
Recorded pIC50 values for a group of molecules are listed next.
Lab note: report pIC50 as minus log10 of the concentration in molar units, number only.

# annotated cases, reported pIC50 shown
O=C(Nc1ncco1)c1cnc2c(SSc3cccc4cc(C(=O)Nc5ncco5)cnc34)cccc2c1 | 4.82
Cc1cnc2c(S)cccc2c1 | 5.15
O=C(Nc1nccs1)c1cnc2c(SSc3cccc4cc(C(=O)Nc5nccs5)cnc34)cccc2c1 | 4.70

Consider the record given below.
Query pIC50 on COP9 signalosome complex subunit 5 (Homo sapiens) for "O=C(NCCc1nccs1)c1ccc2c(SSc3cccc4nc(C(=O)NCCc5nccs5)ccc34)cccc2n1" 4.46

---

target: 26S proteasome non-ATPase regulatory subunit 14 (Homo sapiens, UniProt O00487); test: Inhibition of 26S proteasome regulatory subunit RPN11 deubiquitinating activity in beta5 inhibitor MG132 pretreated human HeLa cells expressing UbG76V-GFP assessed as reduction in UbG76V-GFP degradation rate by fluorescence microscopic method; type: cell-based
Sequence (O00487 whole entry): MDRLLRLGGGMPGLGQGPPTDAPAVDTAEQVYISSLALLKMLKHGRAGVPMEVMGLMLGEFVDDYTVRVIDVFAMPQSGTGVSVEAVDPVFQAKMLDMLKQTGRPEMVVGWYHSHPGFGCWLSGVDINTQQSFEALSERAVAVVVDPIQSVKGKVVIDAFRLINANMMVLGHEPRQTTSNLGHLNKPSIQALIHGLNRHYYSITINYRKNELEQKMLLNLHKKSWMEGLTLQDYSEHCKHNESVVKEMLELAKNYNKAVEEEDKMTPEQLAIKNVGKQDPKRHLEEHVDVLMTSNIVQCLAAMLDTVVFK
pIC50: −log10 of the molar value.
readout: pIC50

A selection of reference data follows.
O=C(NCc1ccccc1)c1cnc2c(SSc3cccc4cc(C(=O)NCc5ccccc5)cnc34)cccc2c1 | < 5.00
O=C(NCc1cccs1)c1cnc2c(SSc3cccc4cc(C(=O)NCc5cccs5)cnc34)cccc2c1 | 5.30
O=C(NCC1CCCO1)c1cnc2c(SSc3cccc4cc(C(=O)NCC5CCCO5)cnc34)cccc2c1 (stereo not drawn) | 6.00
O=C(NCc1ccc(C(F)(F)F)cc1)c1cnc2c(SSc3cccc4cc(C(=O)NCc5ccc(C(F)(F)F)cc5)cnc34)cccc2c1 | < 5.00
O=C(NCCc1nccs1)c1cnc2c(O)cccc2c1 | < 4.00
O=C(NCc1ccccn1)c1cnc2c(SSc3cccc4cc(C(=O)NCc5ccccn5)cnc34)cccc2c1 | < 5.00
O=C(NCCN1CCOCC1)c1cnc2c(SSc3cccc4cc(C(=O)NCCN5CCOCC5)cnc34)cccc2c1 | < 5.00

Note: attention shifts to another entry.
# returns recorded pIC50 (system: 26S proteasome non-ATPase regulatory subunit 14 (Homo sapiens, UniProt O00487)) for "O=C(NCCc1ccco1)c1cnc2c(SSc3cccc4cc(C(=O)NCCc5ccco5)cnc34)cccc2c1" 5.85
